I'd appreciate it if you could supply inhibition values for the items below.
Assay: M. tuberculosis H37Rv growth inhibitors, H37Rv strain (AID 1626);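 also: bacteria incubated seven days before Alamar blue readout; 0% = bacteria only wells and 100% = bacteria with antibiotic wells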
Conditions: active compounds read high, concentration not given here
Out of some 220,000 compounds screened, about 2,000 (0.91%) were called active. About 2% were inconclusive and are not listed. These entries were drawn from the full list. Potency and affinity values are given separately.
One number for each entry, in %.

CCOC(=O)C(=O)Nc1ccccc1C(=O)OCC ... -3.74

Give measured inhibition for every item shown.
1. CCN(Cc1cc(=O)[nH]c2ccccc12)C(=O)c1ccc(C)cc1
2. Cc1ccc(-c2nn(-c3ccccc3)cc2/C=C/C(=O)OCC(=O)NC2CC2)o1
3. CCOc1cc(/C=N/NC(=O)CSc2nncn2C)ccc1OCc1ccccc1
4. CCOC(=O)c1cnc(-n2nc(C)cc2C)nc1NC

[-2.96, 6.54, -1.69, 19.4]

For every item below, please supply its inhibition.
1. O=C(O)c1cccc(NC(=O)c2ccc(Cl)c(S(=O)(=O)N3CCCCCC3)c2)c1
2. COc1ccc(C)cc1S(=O)(=O)N1c2ccccc2CC1C (centres undefined)

-5.92
2.45

// batch mode: one inhibition value per listed entry
1. CCOC(=O)c1cnc(-n2nc(C)cc2C)nc1N1CCOCC1
2. CCOC(=O)c1cnc(-n2nc(C)cc2C)nc1NNc1nc(C)cc(C)n1

1: -9.47; 2: 71.3

* * *

Provide the recorded inhibition for the entries that follow.
Assay: M. tuberculosis H37Rv growth inhibitors, H37Rv strain (AID 1626)
Conditions: active compounds read high, concentration not given here
Among all 220,000 compounds or so, about 2,000 (0.91%) were called active. Not shown: some 2% with an inconclusive outcome. The list is a sample of the results. Entries with a potency or affinity are not part of this list.
One number for each entry, in %.

COCCNC(=O)c1cc(-c2ccc(OC)c(OC)c2)on1 ... 6.55

Hi, could you look up inhibition for each item in my list?
1. Clc1ccc(CN2CCN(c3ncnc4scc(-c5cccs5)c34)CC2)cc1
2. NS(=O)(=O)c1ccc(NC(=O)c2c(Cl)cccc2Cl)cc1

1. 7.36
2. 2.71

* * *

Assay: M. tuberculosis H37Rv growth inhibitors, H37Rv strain (AID 1626)
Conditions: active compounds read high, concentration not given here
Out of some 220,000 compounds screened, about 2,000 (0.91%) were called active. Another 2% or so got no clear call; they are omitted. These entries were drawn from the full list. Potency and affinity values are given separately.
Field: inhibition. Provide a value for each of the molecules that follow.
One number for each entry, in %.

Answered cases to consult:
Cc1cc(C)cc(N=c2c([N+](=O)[O-])nn(-c3ccc(Cl)cc3)n2O)c1 ... 48.3
Cc1ccc(SCC(=O)Nc2ccc(S(=O)(=O)Nc3nccs3)cc2)cc1 ... 13.6
Cc1csc2nc(CNS(=O)(=O)c3ccc4c(c3)CCCC4)cn12 ... -3.26

# batch size: 3; output inhibition per entry
1. CC(C)C(=O)NNC(=O)c1cc2sccc2s1
2. Nc1ccc(/C=C/C(=O)c2ccco2)cc1
3. O=C(CSc1nnc(-c2cccnc2)n1-c1ccccc1)NCc1ccc2c(c1)OCO2

[-9.47, 78.3, 6.03]

I need inhibition for every entry listed below, if you could help.
1. O=C(C[n+]1ccccc1)Nc1c(Cl)cc(Cl)cc1Cl
2. COc1ccccc1NCC(O)Cn1c2ccccc2c2ccccc21 (centres undefined)
3. O=C(NCc1cccs1)c1cccc(S(=O)(=O)N2CCCCC2)c1
4. CCOC(=O)C1C(=O)NC(c2ccccc2)=NC1c1ccc(O)c(OC)c1 (centres undefined)
5. Oc1ccc(-c2nc3ccccc3s2)cc1
6. Cc1cc(C)c(NC(N)=S)c(C)c1

1. -1.93
2. 2.53
3. -1.3
4. 2.45
5. 59.6
6. 5.56

Provide inhibition for all items below, preserving their order.
1. Cc1ccc(-c2cc(C(=O)Nc3cc(C)on3)c3ccccc3n2)cc1
2. Cc1nccc(-c2sc(-c3cccs3)nc2C)n1
3. Cc1cc(NC(=O)c2cc(-c3cccnc3)nc3c(C)c(C)ccc23)no1
4. Clc1cccc(-c2nnc(-c3ccccc3)o2)c1
5. CCOc1ccc(-c2nc(N)ncc2Oc2ccc(OC)cc2)c(O)c1

6.46
2.12
13.3
10.9
1.63

Provide the reported inhibition of each entry below, same order.
1. CN(C)c1ccc(C(=S)N2CCCCC2)cc1Br
2. Cc1c(C#N)c(N=CN(C)C)c(C(=O)c2ccc(Br)cc2)n1-c1ccc(Cl)cc1

1: 6.15; 2: 1.78

* * *

Consider the following compounds; for each one, report its inhibition.
Assay: M. tuberculosis H37Rv growth inhibitors, H37Rv strain (AID 1626)
Details: active compounds read high, concentration not given here
The whole screen tested about 220,000 compounds, of which about 2,000 (0.91%) were called active. Not shown: some 2% with an inconclusive outcome. The list is a sample of the results. Measured potencies and affinities stand elsewhere.
Give bare numbers, in %.

Quick request: inhibition for each listed item, please.
1. Cc1ccc(CS(=O)(=O)Cc2ccc(C(=O)NCc3cccs3)o2)cc1
2. O=C(c1ccccc1)C1C(=O)c2ccccc2C1=O
3. CCOC(=O)C(/C=C(\C#N)C(=O)OCC)=C(/N)N1CCN(c2ccc(OC)cc2)CC1

1: 3.64; 2: -2.43; 3: 6.53

Count: 3. Required value per item: inhibition.
1. O=C(CSc1nnc(CNc2ccc(F)cc2)o1)OC1CCCCC1
2. O=C(/C=C/c1ccc(Cl)cc1Cl)c1nc2ccccc2[nH]1
3. Cc1ccc(C(=O)CSc2nnc(CNc3ccc(C)cc3C)o2)cc1

1: 25.5; 2: 0.46; 3: -7.6

Give measured inhibition for every item shown.
1. CC(C)(C)c1cnnn1-c1ccc(/C=N/Nc2ccc([N+](=O)[O-])cc2)cc1
2. Cc1ccc(C(=O)C2C(=O)c3ccccc3C2=O)cc1
3. CCOCCCNC(=O)c1ccc(NC(C)=O)cc1
4. O=C(C1CCC(N2C(=O)C3CC=CCC3C2=O)CC1)N1CCCCC1 (configuration not stated)
5. Cc1nc(Nc2ccc3c(c2)OCO3)c2oc3ccccc3c2n1
6. COC(=O)C1C(=O)C(C(=O)/C=C/c2ccccc2)C(=O)CC1(C)C (configuration not stated)

[-0.06, 39.5, -8.03, 0.53, -15.2, -2.58]

* * *

Experiment: M. tuberculosis H37Rv growth inhibitors, H37Rv strain (AID 1626);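 also: bacteria incubated seven days before Alamar blue readout; 0% = bacteria only wells and 100% = bacteria with antibiotic wells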
Details: active compounds read high, concentration not given here
About 2,000 (0.91%) of roughly 220,000 compounds were called active. About 2% were inconclusive and are not listed. These entries were drawn from the full list. Potency and affinity values are given separately.
Outcome measure: inhibition (%)
Numbers only, in %.

COc1cccc2sc(Nc3nnc(-c4ccccc4Cl)o3)nc12 ... 52.8
Fc1cccc2sc(Nc3nc4c(F)cccc4s3)nc12 ... 43
Oc1ccc2ccccc2c1CN1CCCC1 ... 12.7

# batch size: 4; output inhibition per entry
1. Cc1ccc2nc(/N=C(\N)NC(=O)N3c4ccccc4Sc4ccccc43)nc(C)c2c1
2. O=C(O)/C=C/c1cccnc1
3. CCOC(=O)c1ccc(NC(=O)c2nc[nH]c2C(=O)N[C@@H](CC(C)C)C(=O)OCc2ccccc2)cc1
4. O=c1oc(-c2ccccc2NS(=O)(=O)c2ccc3ccccc3c2)nc2ccccc12

94.5
-0.59
-7.55
7.84

* * *

Task for the reader: assign each of the following compounds its reported inhibition.
Test: M. tuberculosis H37Rv growth inhibitors, H37Rv strain (AID 1626);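 also: bacteria incubated seven days before Alamar blue readout; 0% = bacteria only wells and 100% = bacteria with antibiotic wells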
Details: active compounds read high, concentration not given here
Out of some 220,000 compounds screened, about 2,000 (0.91%) were called active. Another 2% or so got no clear call; they are omitted. A selection follows. Results with a measured potency or affinity are listed apart.
One number for each entry, in %.

Look over these answered cases.
COC(=O)C1CCN(C(=O)c2sc3nc(-c4ccc(F)cc4)cn3c2C)CC1 ... 6.16
COC(=O)c1ccc(NC(=O)CCOc2ccccc2)cc1 ... 23.7
CCOC(=O)Nc1cccc(Nc2ccccc2)c1 ... 3.05
CC(C)(C)C(=O)COC(=O)c1ccccc1O ... 10.3
COc1ccccc1-c1coc2cc(OC(=O)N3CCOCC3)ccc2c1=O ... 0.83

Would you mind listing inhibition for each of the following compounds?
1. CC1=CC(C)(C)Nc2ccc(OC(=O)CN3C(=O)c4ccccc4C3=O)cc21
2. COCc1cc(=O)n2[nH]c(SCc3ccccc3)nc2n1

1. -11.5
2. -0.4

* * *

Assay: M. tuberculosis H37Rv growth inhibitors, H37Rv strain (AID 1626);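 also: bacteria incubated seven days before Alamar blue readout; 0% = bacteria only wells and 100% = bacteria with antibiotic wells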
Settings: active compounds read high, concentration not given here
Hit rate of the full screen: of about 220,000 compounds, about 2,000 (0.91%) were called active. Not shown: some 2% with an inconclusive outcome. Not all results are given here. Results with a measured potency or affinity are listed apart.
Record form. Attribute: inhibition. Fill in for each entry.
Give bare numbers, in %.

Respectfully, I request inhibition for each entry included below.
1. CCOC(=O)c1snc(C(=O)NC2CCCCC2)c1N
2. Cc1c(NC(=S)N/C(=N/S(=O)(=O)c2ccc(Cl)cc2)c2ccccc2)c(=O)n(-c2ccccc2)n1C
3. O=C(NCC1CCCO1)c1sc2cc(Cl)ccc2c1Cl (stereo not given)

1. 5.5
2. 3.87
3. 10.4
